Provide the reported EC50 (read off the curve) of each item.
target: T1, Recombinant Human PD-L1/CD274 Protein (hPD-L1-his) (human, UniProt Q9NZQ7 19-238); assay: ELISA on coated hPD-L1-his
T1 construct: range 19-238; ACRO Biosystem PD1-H5229, made in HEK293; also called human PD-L1-his; hPD-L-his
T1 sequence (Q9NZQ7 other isoform, or with tags, fused parts or gaps limits assumed): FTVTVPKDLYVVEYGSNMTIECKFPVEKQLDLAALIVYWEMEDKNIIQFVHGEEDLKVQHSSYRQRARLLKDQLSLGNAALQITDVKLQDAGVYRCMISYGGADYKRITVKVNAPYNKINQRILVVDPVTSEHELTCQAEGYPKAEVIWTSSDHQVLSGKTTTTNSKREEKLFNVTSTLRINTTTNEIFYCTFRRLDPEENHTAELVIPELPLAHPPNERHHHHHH

Challenge: Can you look up the measured EC50 (read off the curve) of 23F11-H4L6 (antibody, V domains shown, produced in 293 cells; light chain constant region not described; also called humanized 23F11 H4L6) VH: QVQLVQSGAEVKKPGASVKLSCKASGYIFTTYWMHWVKQRPGQGLEWIGMIQPNSGGTKYNEKFKKKATLTVDKSISTAYMELSRLTSDDTAVYYCARGAGTVDYFDYWGQGSTLTVSS VL: DIVLTQSPASLAVSVGQRATITCRASESVDIYGNSFMHWYQQKPGQPPKLLIYRASNLESGIPARFSGSGSRTDFTLTINPVEANDTATYYCHQSTEDPYTFGGGTKLEIK for me?
Response given: ~2 ng/mL

Challenge: Queued: 23F11-C (antibody, V domains shown, Mouse variable regions fused to a human IgG1 constant region; also called 23F11-chimeric; chimeric antibody 23F11) VH: QVQLQQPGAELVKPGASVKLSCKASGYSFTTYWMHWVKQRPGQGLEWIGMIQPNSGGTKYNEKFKKKATLTVDKSSTTASMELSSLTSEDSAVYYCARGAGTVDYFDYWGQGSTLTVSS VL: DIVLTHSPVSLAVSLGQRATISCRASESVDIYGNSFMHWYQQKPGQPPKLLIYRASNLESGIPARFSGSGSRTDFTLTINPVEADDVATYYCQQSTEDPYTFGGGTKLEIK
Response given: ~4 ng/mL

Challenge: Queued: 23F11-H6L4 (antibody, V domains shown, Humanized; also called humanized 23F11 H6L4) VH: QVQLVQSGAEVKKPGASVKVSCKASGYIFTTYWMHWVRQAPGQGLEWIGMIQPNSGGTKYNEKFKKKATLTVDTSISTAYMELSRLRSDDTAVYYCARGAGTVDYFDYWGQGSTLTVSS VL: DIVLTQSPASLAVSVGQRATITCRASESVDIYGNSFMHWYQQKPGQPPKLLIYRASNLESGIPARFSGSGSRTDFTLTINPVEANDTATYYCQQSTEDPYTFGGGTKLEIK
Response given: ~2 ng/mL

Challenge: Queued: 23F11-H6L6 (antibody, V domains shown, produced in 293 cells; light chain constant region not described; also called humanized 23F11 H6L6) VH: QVQLVQSGAEVKKPGASVKVSCKASGYIFTTYWMHWVRQAPGQGLEWIGMIQPNSGGTKYNEKFKKKATLTVDTSISTAYMELSRLRSDDTAVYYCARGAGTVDYFDYWGQGSTLTVSS VL: DIVLTQSPASLAVSVGQRATITCRASESVDIYGNSFMHWYQQKPGQPPKLLIYRASNLESGIPARFSGSGSRTDFTLTINPVEANDTATYYCHQSTEDPYTFGGGTKLEIK
Response given: ~4 ng/mL

Challenge: Queued: 23F11-H4L4 (antibody, V domains shown, Human IgG1 constant region with N297A; biotinylated in the alanine-scan ELISA; also called 23F11-H4L4-bio; humanized 23F11) VH: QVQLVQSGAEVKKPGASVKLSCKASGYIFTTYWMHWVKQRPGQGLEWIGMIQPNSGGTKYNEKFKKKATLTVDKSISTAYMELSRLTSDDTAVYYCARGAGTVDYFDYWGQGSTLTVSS VL: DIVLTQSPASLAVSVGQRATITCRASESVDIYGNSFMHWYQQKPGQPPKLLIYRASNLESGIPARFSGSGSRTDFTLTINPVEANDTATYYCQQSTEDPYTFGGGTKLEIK
Response given: ~1 ng/mL
